Give measured IC50 for each item. Keep answers brief.
System Tested: human IGF1R (hIGF1R) (Homo sapiens)
Construct: containing amino acid residues 957-1367 of human IGF1R; made in house; host or cells: Sf9 cells (baculovirus)
Sequence (P08069 957-1367): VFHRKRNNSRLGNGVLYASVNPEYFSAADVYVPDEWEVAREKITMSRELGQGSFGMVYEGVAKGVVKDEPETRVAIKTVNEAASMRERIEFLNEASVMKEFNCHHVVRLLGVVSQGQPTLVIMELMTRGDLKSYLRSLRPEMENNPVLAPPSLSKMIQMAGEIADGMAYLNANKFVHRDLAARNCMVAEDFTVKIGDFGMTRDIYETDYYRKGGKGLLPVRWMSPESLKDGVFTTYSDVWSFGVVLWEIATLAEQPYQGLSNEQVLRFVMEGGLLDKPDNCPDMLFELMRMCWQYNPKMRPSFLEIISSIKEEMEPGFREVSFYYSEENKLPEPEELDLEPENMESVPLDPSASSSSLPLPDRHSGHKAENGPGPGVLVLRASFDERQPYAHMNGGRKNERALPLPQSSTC
Method Description: TR-FRET kinase assay of purified hIGF1R
Assay type: biochemical
Test Parameters: activated hIGF1R 0.5 nM, 10 μM ATP, values given as pIC50 category, read-out: IGF-1R pIC50 (converted)

Lab book: IC50 of CCCN1CCC(c2ccc(Nc3nc(Nc4cccc(F)c4C(N)=O)c4cc[nH]c4n3)c(OC)c2)CC1 noted as 0.251 to 1 nM

For this compound ( COc1cc2c(cc1Nc1nc(Nc3cccc(F)c3C(N)=O)c3cc[nH]c3n1)NCC2 ), measured IC50 is 5.01 to 200 nM

Kindly note the recorded IC50 for CNC(=O)c1c(F)cccc1Nc1nc(Nc2cc3c(cc2OC)C(C)(C)CCN3C(=O)CN(C)C)nc2[nH]ccc12 , which is 0.251 to 1 nM

Lab note: measured IC50 of COc1cc2c(cc1Nc1nc(Nc3cccc(F)c3C(N)=O)c3cc[nH]c3n1)N(C(=O)N(C)C)CC2 was 5.01 to 200 nM

// recorded IC50 for CNC(=O)c1c(F)cccc1Nc1nc(Nc2cc3c(cc2OC)CCN(CCF)C3)nc2[nH]ccc12 : 5.01 to 200 nM
